The measured values listed here are drawn from the supplement of paper PMC10567573.

B1: PBXIP1 (parent)
chain: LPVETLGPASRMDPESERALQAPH

variants of: B1; assay: protein stability index of a GFP-peptide fusion (GPS, HEK-293T) (PSI 1-6); higher = more stable; details: c terminus: a fixed tail appended;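 further: lentivirally expressed fusions sorted by FACS into six bins by GFP to DsRed ratio, PSI derived from sequencing read proportions per bin multiplied by bin number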

var | protein stability index
M12L | 4.04
D13C | 3.64
P8R | 4.73
L20C | 3.99
M12V | 4.34
L20R | 4.86
E4C | 4.99
H24L | 3.94
G7T | 5.37
R18I | 4.29
S16H | 4.25
